target: T1, human LILRB2 expressed on cells (293T-LILRB2, CHO-K1-LILRB2) (human, UniProt Q8N423 22-597); test: flow cytometry, His-HLA-A2 tetramer (competitor) bound to 293T-LILRB2 cells, relative to no antibody; design: concentration or dose not given beside the values
T1 construct: whole, on cells; the cell line is named under assay; also called HEK293T-LILRB2
T1 sequence (Q8N423 22-597): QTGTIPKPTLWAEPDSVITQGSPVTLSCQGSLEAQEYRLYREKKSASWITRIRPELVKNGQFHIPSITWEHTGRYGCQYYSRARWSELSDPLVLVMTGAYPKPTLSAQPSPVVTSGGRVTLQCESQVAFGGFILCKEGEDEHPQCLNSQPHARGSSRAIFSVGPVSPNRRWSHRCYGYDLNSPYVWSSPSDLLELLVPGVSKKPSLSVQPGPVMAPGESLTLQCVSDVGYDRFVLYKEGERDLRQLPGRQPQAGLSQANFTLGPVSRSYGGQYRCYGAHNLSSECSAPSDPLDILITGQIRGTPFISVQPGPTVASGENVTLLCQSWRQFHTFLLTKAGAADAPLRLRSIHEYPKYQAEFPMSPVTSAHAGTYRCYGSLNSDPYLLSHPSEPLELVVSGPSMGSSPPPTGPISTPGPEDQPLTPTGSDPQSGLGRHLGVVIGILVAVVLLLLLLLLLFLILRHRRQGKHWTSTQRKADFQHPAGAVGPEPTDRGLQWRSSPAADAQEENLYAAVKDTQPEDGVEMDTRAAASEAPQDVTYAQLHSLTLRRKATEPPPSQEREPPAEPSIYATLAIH
// reported % no Ab for each item listed
Please reply with the bare figure in % and do not write the unit itself.

Illustrative cases are given below, each with its answer.
>>> recorded_number("Antibody 2E1_FG4 (antibody, V domains shown) VH: EVQLVESGGGLVQPGGSLRLSCAVSGYSITSGYYWNWIRQAPGKGLEWVAYISYDGNVNYNPSLKNRFTISRDTSKNTFYLQMNSLRAEDTAVYYCAREESTMITTAWFAYWGQGTLVTVSS VL: DIQMTQSPSSLSASVGDRVTITCRASENIYSNLAWYQQKPGKAPKLLIYGATNLASGVPSRFSGSGSGTDYTLTISSLQPEDFATYYCQHFWDTPYIFGQGTKVEIK")
55.4
>>> recorded_number("Antibody 2E1_GB11 (antibody, V domains shown) VH: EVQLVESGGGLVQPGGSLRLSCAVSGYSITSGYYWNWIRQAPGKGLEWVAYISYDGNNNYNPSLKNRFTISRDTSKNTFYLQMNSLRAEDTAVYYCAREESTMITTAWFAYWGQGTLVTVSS VL: DIQMTQSPSSLSASVGDRVTITCRASENIYSNLAWYQQKPGKAPKLLIYGATNLALGVPSRFSGSGSGTDYTLTISSLQPEDFATYYCQHFWDTPYTFGQGTKVEIK")
50.1

Turning now to a further record.
Give the value of % no Ab reported for the following: Antibody 2E1_FD3 (antibody, V domains shown) VH: EVQLVESGGGLVQPGGSLRLSCAVSGYSITSGYYWNWIRQAPGKGLEWVAYISYDGNANYNPSLKNRFTISRDTSKNTFYLQMNSLRAEDTAVYYCAREESTMITTAWFAYWGQGTLVTVSS VL: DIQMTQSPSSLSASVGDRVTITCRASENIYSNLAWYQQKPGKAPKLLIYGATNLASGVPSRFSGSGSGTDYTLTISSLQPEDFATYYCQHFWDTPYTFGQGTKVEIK 51
